- Test system: MS2 coat protein
- protocolDetails: apparent KD of MS2 coat protein; designed switch direction (-1 OFF switch, 1 ON switch): 1; higher = weaker reporter binding
- conditionNotes: Eterna round: R95; input ligand: microRNA oligo, concentration not stated
Criterion: apparent KD of MS2 coat protein meeting or surpassing 40 nM. Met: yes (1). Not met: no (0).

A selection of reference data follows.
| seqString | discreteLabel |
| --- | --- |
| AAGAAUCUAUCUCAGGAUAUCAUGUCAAAGACAUGAGGAUCACCCAUGUACCAGGAAACUGGUUAUGAGAAGGGAGAUAGAUUCU [Mat - Same State 2 - Mod - D32] (puzzle: Same State 2) | no (0) |
| GGAGGGAGGGCGCAGGAUAUCGAUAAUGACACAUGAGGAUCACCCAUGUUUGGUAUUAGAAGGAACGAGAAGGGUGAGAGGAGGG [red_knee_arm] (puzzle: Same State 2) | no (0) |
| GGUCCAGCCUGAGCUGGACCGAAGCAUGUACAUGAGGAUCACCCAUGUCAUGUACAGGCUUUUUGCUCGUCUUAUUG [JL-shm-2.12 JL Mod] (puzzle: Sensor for hsa-mir-208a) | no (0) |
| UCUUGGUUUUUGCUCGUUUUUUGUGUUGAACAUGAGGAUCACCCAUGUAUUGUACGAUCCGAUUUAAUAAUGGUCCG [JMF 62] (puzzle: Sensor for hsa-mir-208a) | yes (1) |

Next:
Kindly determine if apparent KD of MS2 coat protein recorded for AGUCCAGCGAAAGCUGGACAAAAGCGUGUACAUGAGGAUCACCCAUGUUCAUGUACAAGCUUUUUGCUCGUCUUAAA [JL mod - D95 - 6] (puzzle: Sensor for hsa-mir-208a) is above or exactly 40 nM.
no (0)

All values here come from the supplement of paper PMC9170038.
